target: hMCHR1 (Homo sapiens, UniProt Q99705); construct: expressed in transfected cells; host or cells: HEK293; assay: MCHR1 pIC50 Determination FLIPR Assay; format: cell-based; settings: HEK293 cells stably transfected with hMCHR1; MCH challenge at 4XEC50; at least one experimental run; read-out: IC50 in the FLIPR assay
Sequence (Q99705 whole entry): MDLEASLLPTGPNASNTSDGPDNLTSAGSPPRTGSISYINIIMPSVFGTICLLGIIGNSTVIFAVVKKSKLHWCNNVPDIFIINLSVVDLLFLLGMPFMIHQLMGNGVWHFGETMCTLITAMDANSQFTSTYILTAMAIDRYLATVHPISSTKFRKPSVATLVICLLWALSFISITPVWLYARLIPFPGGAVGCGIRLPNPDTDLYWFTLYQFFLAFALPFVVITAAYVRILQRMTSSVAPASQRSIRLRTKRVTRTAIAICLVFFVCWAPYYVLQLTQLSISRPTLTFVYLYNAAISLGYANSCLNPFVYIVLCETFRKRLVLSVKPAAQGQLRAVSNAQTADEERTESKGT
pIC50: −log10 of the molar value.

# MOLECULE, MEASURED TARGET, pIC50
data = [
    ("O=c1cc(OCc2ccc(Cl)cn2)ccn1-c1ccc(N2CCCNCC2)nc1 [Example 13]", "hMCHR1 (Homo sapiens, UniProt Q99705)", 7.28),
    ("O=c1cc(OCc2ccc(Cl)cn2)ccn1-c1ccc(N2CCC[C@@H]2CO)nc1 [Example 4]", "hMCHR1 (Homo sapiens, UniProt Q99705)", 7.32),
    ("CC(C)[C@H]1CN(c2ccc(-n3ccc(OCc4ccc(Cl)cn4)cc3=O)cn2)CCN1C [Example 19]", "hMCHR1 (Homo sapiens, UniProt Q99705)", 7.28),
]
